B1: CPEB3 Ribozyme (parent)
chain: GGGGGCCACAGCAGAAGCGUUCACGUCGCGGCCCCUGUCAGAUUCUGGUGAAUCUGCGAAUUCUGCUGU

# Variants of: B1
# protocol_notes: self-cleavage, relative activity (ratio to wild type); higher = more cleavage; co-transcriptional
Decision: self-cleavage compared against 0.4; not below it gives Criterion met, below it gives Criterion not met.

# count of solved cases: 3
> print(dat)
   mutation.notation        label.class
1          C54U U55G      Criterion met
2           A8C C27U  Criterion not met
3           C7U U44A      Criterion met

Ask | Dear colleague, could you confirm whether G30C U53A has self-cleavage at or above 0.4?
Reply | Criterion met

Ask | Dear colleague, could you confirm whether A13C U46A has self-cleavage at or above 0.4?
Reply | Criterion met

Ask | Dear colleague, could you confirm whether C45U U46A has self-cleavage at or above 0.4?
Reply | Criterion met

Ask | Dear colleague, could you confirm whether C18A C27G has self-cleavage at or above 0.4?
Reply | Criterion not met

Ask | Dear colleague, could you confirm whether G5A A40U has self-cleavage at or above 0.4?
Reply | Criterion met

Ask | Dear colleague, could you confirm whether C45U A59C has self-cleavage at or above 0.4?
Reply | Criterion met

Ask | Dear colleague, could you confirm whether A13U C39U has self-cleavage at or above 0.4?
Reply | Criterion met

Ask | Dear colleague, could you confirm whether C54G C63A has self-cleavage at or above 0.4?
Reply | Criterion met

Ask | Dear colleague, could you confirm whether C9A U43C has self-cleavage at or above 0.4?
Reply | Criterion met

Ask | Dear colleague, could you confirm whether G3U C6A has self-cleavage at or above 0.4?
Reply | Criterion not met

Ask | Dear colleague, could you confirm whether A15C C63U has self-cleavage at or above 0.4?
Reply | Criterion met

Ask | Dear colleague, could you confirm whether A8C G48A has self-cleavage at or above 0.4?
Reply | Criterion met

Ask | Dear colleague, could you confirm whether G4C U44C has self-cleavage at or above 0.4?
Reply | Criterion met
